The reported numbers originate from ChEMBL document CHEMBL1126046.

# ASSAY: Inhibitory effect on the proliferation of T-lymphoblast molt/4F cells.
# Format: functional
# CONDITION_INFO: Homo sapiens
Quick reference: IC50 of the listed items.
VALUE_KIND: IC50 (µg/mL)

[[record]]
compound = "C/C(=C\\COc1ccc2ccc(=O)oc2c1)CC/C=C(\\C)C1=CC(=O)C(C)(C)O1"
obs_value = 28.5

[[record]]
compound = "C/C(=C\\COc1ccc2ccc(=O)oc2c1)CC/C=C(\\C)C1CC(=O)C(C)(C)O1 (centres undefined)"
obs_value = 24.2

[[record]]
compound = "C/C(=C\\COc1ccc2ccc(=O)oc2c1)C1CC(=O)C(C)(C)O1 (centres undefined)"
obs_value = 97.5

[[record]]
compound = "C/C(=C\\COc1ccc2ccc(=O)oc2c1)C1=CC(=O)C(C)(C)O1"
obs_value = 7.92

